system.name: recombinant human MT1-MMP catalytic domain (human, UniProt P50281 114-287)
test.method.notes: ELISA
assay.metric: Kd

-- ask Entry HWKHLHNTKTFL [MT1-AF7p] has what Kd?
-- reply 47.4 nM
